Source of measurements: ChEMBL document CHEMBL1201862

system: Heat shock protein HSP 90-alpha (Homo sapiens)
Assay type: functional, organism-based
The source made the active and inactive calls.
measured endpoint: AC50

| molecule | measured endpoint | test result |
| --- | --- | --- |
| O=c1cc2oc3cc(O)c(O)cc3c(-c3ccccc3[N+](=O)[O-])c-2cc1O | AC50 | 2.9 µM (active) |
| O=C(/C=C/c1ccc(Cl)c([N+](=O)[O-])c1)c1cccnc1 | AC50 | 1.31 µM (active) |
| O=C(c1ccc(-c2ccccc2)cc1)C1CCCN(C(=O)c2cncs2)C1 (stereo not drawn) | AC50 | 4.29 µM (active) |
| Cc1ccc(S(=O)(=O)Nc2ccc3ccccc3c2[N+](=O)[O-])cc1 | AC50 | 8.19 µM (active) |
| COc1ccc2oc(/C=C/N(C)C)c(C(=O)c3ccc(Cl)cc3)c2c1 | AC50 | 3.8 µM (active) |
| COc1cccc(/C=N/Nc2ncc(C(F)(F)F)cc2Cl)c1O | AC50 | 5.59 µM (active) |
| O=C(NNC1=C(C(=O)C(F)(F)F)CCC1)c1ccc(Br)cc1 | AC50 | 1.11 µM (active) |
| CC(=NNC(=S)N1CC2CCC(CC2)C1)c1ccncn1 | AC50 | 3.03 µM (active) |
